Can you tell me melting point for the items I'm about to list?

Can you look up the measured melting point of CCc1csc(Cc2ccc(NC(=O)/C=C/c3cnn(C)c3-c3ccc(F)cc3)cc2)n1 for me?
211 to 212 °C

Can you look up the measured melting point of CCOP(=O)(Cc1ccc(NC(=O)/C=C/c2cnn(C)c2C)cc1)OCC for me?
228 to 230 °C

Can you look up the measured melting point of Cn1ncc(/C=C/C(=O)Nc2ccc(CN3C(=O)CNC3=O)cc2)c1-c1ccc(F)cc1 for me?
249 to 250 °C

----------
Can you tell me melting point for the items I'm about to list?

Can you look up the measured melting point of Cn1ncc(/C=C/C(=O)Nc2ccc(Cn3ncnn3)cc2)c1-c1ccc(F)cc1 [Example 198] for me?
210 to 211 °C

Can you look up the measured melting point of CC(C)c1nccn1Cc1ccc(NC(=O)/C=C/c2cnn(C)c2-c2ccc(F)cc2)cc1 [Example 162] for me?
271 to 272 °C

Can you look up the measured melting point of COP(=O)(Cc1ccc(NC(=O)/C=C/c2cnn(C)c2-c2ccccc2)cc1)OC for me?
219 to 220 °C

Can you look up the measured melting point of CSCc1ccc(NC(=O)/C=C/c2cnn(C)c2-c2ccc(F)cc2)cc1 [Example 208] for me?
165 to 168 °C

Can you look up the measured melting point of CC(=O)N(C)Cc1ccc(NC(=O)/C=C/c2cnn(C)c2-c2ccc(F)cc2)cc1 [Example 117] for me?
192 to 193 °C

Can you look up the measured melting point of CCOP(=O)(Cc1ccc(NC(=O)CCc2cnn(C)c2-c2ccc(F)cc2)cc1)OCC for me?
143 to 144 °C

Can you look up the measured melting point of Cn1ncc(/C=C/C(=O)Nc2ccc(C(=O)c3ccccc3)cc2)c1-c1ccc(F)cc1 [Example 205] for me?
110 to 112 °C

Can you look up the measured melting point of CCOP(=O)(Cc1ccc(NC(=O)/C=C/c2cnn(C)c2-c2ccc(C(F)(F)F)cc2)cc1)OCC for me?
200 to 201 °C

Can you look up the measured melting point of CCOP(=O)(Cc1ccc(NC(=O)/C=C/c2nn(C)cc2-c2ccc(F)cc2)cc1)OCC for me?
203 to 204 °C

Can you look up the measured melting point of CCOP(=O)(Cc1ccc(NC(=O)/C=C/c2c(-c3ccc(F)cc3)cnn2C)cc1)OCC for me?
138 to 139 °C

Can you look up the measured melting point of Cc1nc(Cc2ccc(NC(=O)/C=C/c3cnn(C)c3-c3ccc(F)cc3)cc2)cs1 [Example 100] for me?
192 to 193 °C

Can you look up the measured melting point of Cn1ncc(/C=C/C(=O)Nc2ccc(Cc3nc4ccccc4[nH]3)cc2)c1-c1ccc(F)cc1 [Example 108] for me?
> 300 °C

Can you look up the measured melting point of Cn1ncc(/C=C/C(=O)Nc2ccc(C[S+]([O-])C(C)(C)C)cc2)c1-c1ccc(F)cc1 (stereo not shown) [Example 218] for me?
242 to 243 °C

Can you look up the measured melting point of CCOP(=O)(Cc1ccc(NC(=O)/C=C/c2cnn(C)c2-c2cccnc2)cc1)OCC for me?
211 to 214 °C

Can you look up the measured melting point of CCc1nccn1Cc1ccc(NC(=O)/C=C/c2cnn(C)c2-c2ccc(F)cc2)cc1 [Example 191] for me?
237 to 238 °C

Can you look up the measured melting point of CCOP(=O)(Cc1ccc(NC(=O)/C=C/c2cnn(C)c2-c2cccc(Cl)c2)cc1)OCC for me?
214 to 216 °C

Can you look up the measured melting point of CCOP(=O)(Cc1ccc(NC(=O)/C=C/c2cn[nH]c2-c2ccc(F)cc2)cc1)OCC for me?
181 to 182 °C

Can you look up the measured melting point of CN1C(=O)SC(Cc2ccc(NC(=O)/C=C/c3cnn(C)c3-c3ccc(F)cc3)cc2)C1=O (stereo not shown) [Example 110] for me?
228 to 229 °C

Can you look up the measured melting point of Cn1ncc(/C=C/C(=O)Nc2ccc(CN)cc2)c1-c1ccc(F)cc1 [Example 137] for me?
201 to 202 °C

Can you look up the measured melting point of CCN1C(=O)SC(Cc2ccc(NC(=O)/C=C/c3cnn(C)c3-c3ccc(F)cc3)cc2)C1=O (stereo not shown) [Example 111] for me?
214 to 215 °C

Can you look up the measured melting point of CC(C)CC(=O)NCc1ccc(NC(=O)/C=C/c2cnn(C)c2-c2ccc(F)cc2)cc1 [Example 141] for me?
226 to 227 °C

Can you look up the measured melting point of CCOP(=O)(Cc1ccc(NC(=O)CCc2cnn(-c3ccccc3)c2-c2ccccc2)cc1)OCC for me?
157 to 159 °C

Can you look up the measured melting point of Cn1ncc(/C=C/C(=O)Nc2ccc3c(c2)oc(=O)n3C)c1-c1ccc(F)cc1 [Example 122] for me?
265 to 266 °C

Can you look up the measured melting point of CCOC(=O)c1ccc(NC(=O)/C=C/c2cnn(C)c2-c2ccc(F)cc2)cc1 [Example 180] for me?
202 to 203 °C

Can you look up the measured melting point of Cn1ncc(/C=C/C(=O)Nc2ccc(Cn3ncc4ccccc43)cc2)c1-c1ccc(F)cc1 [Example 176] for me?
146 to 148 °C

----------
Can you tell me melting point for the items I'm about to list?

Can you look up the measured melting point of Cn1ncc(/C=C/C(=O)Nc2ccc(S(=O)(=O)c3ccccc3)cc2)c1-c1ccc(F)cc1 [Example 206] for me?
169 to 172 °C

Can you look up the measured melting point of COP(=O)(Cc1ccc(NC(=O)/C=C/c2cnn(C)c2-c2ccc(C(F)(F)F)cc2)cc1)OC for me?
212 to 213 °C

Can you look up the measured melting point of Cn1ncc(/C=C/C(=O)Nc2ccc(Cn3ccnn3)cc2)c1-c1ccc(F)cc1 [Example 194] for me?
252 to 253 °C

Can you look up the measured melting point of CCOP(=O)(Cc1ccc(NC(=O)/C=C/c2cnn(Cc3ccccc3)c2-c2ccc(F)cc2)cc1)OCC for me?
207 to 208 °C

Can you look up the measured melting point of Cn1ncc(/C=C/C(=O)Nc2ccc(Cc3nc4ccccc4o3)cc2)c1-c1ccc(F)cc1 [Example 107] for me?
195 to 196 °C

Can you look up the measured melting point of COP(=O)(Cc1ccc(NC(=O)CCc2cnn(C)c2-c2ccc(F)cc2)cc1)OC for me?
142 to 143 °C

Can you look up the measured melting point of Cn1ncc(/C=C/C(=O)Nc2ccc(OCc3nnco3)cc2)c1-c1ccc(F)cc1 [Example 94] for me?
154 to 155 °C

Can you look up the measured melting point of Cn1ncc(/C=C/C(=O)Nc2ccc(Cn3cncn3)cc2)c1-c1ccc(F)cc1 [Example 163] for me?
225 to 226 °C

Can you look up the measured melting point of CN(C)C(=O)Cc1ccc(NC(=O)/C=C/c2cnn(C)c2-c2ccc(F)cc2)cc1 [Example 143] for me?
209 to 210 °C

Can you look up the measured melting point of Cn1ncc(/C=C/C(=O)Nc2ccc(CC(C)(C)C)cc2)c1-c1ccc(F)cc1 [Example 105] for me?
150 to 151 °C

Can you look up the measured melting point of Cc1coc(Cc2ccc(NC(=O)/C=C/c3cnn(C)c3-c3ccc(F)cc3)cc2)n1 [Example 95] for me?
220 to 221 °C

Can you look up the measured melting point of CCOP(=O)(Cc1ccc(NC(=O)/C=C/c2c(C)nn(C)c2-c2ccc(F)cc2)cc1)OCC for me?
159 to 160 °C

Can you look up the measured melting point of Cn1ncc(/C=C/C(=O)Nc2ccc(Cc3nnco3)cc2)c1-c1ccc(F)cc1 [Example 129] for me?
223 to 224 °C

Can you look up the measured melting point of Cn1ncc(/C=C/C(=O)Nc2ccc(Cc3nnn[nH]3)cc2)c1-c1ccc(F)cc1 [Example 87] for me?
252 to 253 °C

Can you look up the measured melting point of Cn1ncc(/C=C/C(=O)Nc2ccc(Cc3ccccn3)cc2)c1-c1ccc(F)cc1 [Example 96] for me?
215 to 216 °C

Can you look up the measured melting point of CCCc1nnc(Cc2ccc(NC(=O)/C=C/c3cnn(C)c3-c3ccc(F)cc3)cc2)o1 [Example 85] for me?
154 to 155 °C

Can you look up the measured melting point of CCOP(=O)(Cc1ccc(NC(=O)/C=C/c2cnn(C)c2-c2ccc(C)cc2)cc1)OCC for me?
243 to 245 °C

Can you look up the measured melting point of COC(=O)c1ncnn1Cc1ccc(NC(=O)/C=C/c2cnn(C)c2-c2ccc(F)cc2)cc1 [Example 164] for me?
203 to 205 °C

Can you look up the measured melting point of Cn1ncc(/C=C/C(=O)Nc2ccc(CO)cc2)c1-c1ccc(F)cc1 [Example 153] for me?
117 to 118 °C

Can you look up the measured melting point of CCOP(=O)(CCc1ccc(NC(=O)/C=C/c2cnn(C)c2-c2ccc(F)cc2)cc1)OCC for me?
157 to 158 °C

Can you look up the measured melting point of CCSCc1ccc(NC(=O)/C=C/c2cnn(C)c2-c2ccc(F)cc2)cc1 [Example 210] for me?
157 to 158 °C

Can you look up the measured melting point of Cc1csc(Cc2ccc(NC(=O)/C=C/c3cnn(C)c3-c3ccc(F)cc3)cc2)n1 [Example 127] for me?
217 to 218 °C

Can you look up the measured melting point of Cn1ncc(/C=C/C(=O)Nc2ccc(CC(=O)O)cc2)c1-c1ccc(F)cc1 [Example 133] for me?
245 to 246 °C

The reported numbers originate from patent US7423159B2.
